Origin of the recorded values: PubChem BioAssay (NCI)

Tested on: K-562 leukemia
METHOD SUMMARY: NCI tumour cell line growth inhibition, 48 h
Assign TGI to each entry below.

# example entries with known answers
NC(=S)N/N=C1\C(=O)N(c2cccc([N+](=O)[O-])c2)C(=O)C1C(=O)Nc1cccc([N+](=O)[O-])c1 (stereo unspecified)	> 100 µM
Cn1c(Cc2ccccc2)nc2cc3ccccc3cc21	> 100 µM
COc1nc(C#CCCCC#N)nc(OC)n1	> 100 µM
C=C1C(C2(C)C=CC(=O)OC3(C)COC(=O)CC32)C(OC=O)C(OC(=O)C(O)C(C)CC)C2(C)C(c3ccoc3)CC(OC(C)=O)C12O (stereo unspecified)	> 100 µM
CCOC(=O)C(NC(=O)NCc1ccc(F)cc1)C(F)(F)F (stereo unspecified)	> 100 µM
CC1=Cc2cc3[n-]c(cc4nc(cc5[n-]c(cc1n2)c(C)c5CCC(=O)O)C(CCC(=O)O)=C4C)cc3C.[Cu+2]	> 60.6 µM
COc1ccccc1NC(=S)Nc1cccc(C)n1	> 100 µM
CSC1=N/C(=C\c2ccc(Cl)cc2)C(=O)N1CN1CCOCC1	> 100 µM

For every listed record, write down its TGI.
1. CC1C(c2ccccc2)=CCON1c1ccccc1 (stereo unspecified)
2. N#C/C(=C\c1ccc(Cl)cc1)n1nnc2cc(F)c(F)cc21
3. CCn1cc(C(=O)O)c(=O)c2cc(F)c(N3CCN(Cn4c(O)c(N=NC(=O)c5ccncc5)c5cc(Cl)ccc54)CC3)cc21

1: > 100 µM; 2: > 100 µM; 3: > 100 µM

For every listed record, write down its TGI.
1. c1cncc(-c2cc(-c3cc(-c4cccnc4)n[nH]3)[nH]n2)c1
2. CN(C)c1cccc(-c2cc(=O)c3cc4c(cc3[nH]2)OCO4)c1
3. CCN(CC)CCN1CCN=c2c3cc(OC)ccc3n3cnc4ccc1c2c43
4. C[C@@H](Oc1cc(-c2cnn(C3CC4(CCNCC4)C3)c2)cnc1N)c1c(F)ccc(Cl)c1Cl

["> 100 µM", "> 100 µM", "2.68 µM", "1.4 µM"]

For every listed record, write down its TGI.
1. O=C(c1cccs1)c1c(C(F)(F)F)n([O-])c2cc(C(F)(F)F)ccc2[n+]1=O
2. C=CCN1C(=O)N/C(=C\c2ccc(Cl)cc2)C1=O
3. CC1N(O)C(c2ccccc2)C(c2ccccc2)=[N+]1[O-] (stereo unspecified)
4. O=C1C(Br)=C(c2ccccc2)C(c2ccccc2)=C1c1ccccc1
5. NC(=O)CC1(O)C=CC(=O)C=C1
6. O=C1CC(c2ccccc2)NCN1 (stereo unspecified)

0.101 µM
> 100 µM
> 100 µM
9.93 µM
> 100 µM
> 100 µM

* * *

Tested on: T-47D breast
METHOD SUMMARY: NCI tumour cell line growth inhibition, 48 h; in the data active = GI50 below about 0.43 µM; inactive = the rest
Answer with one of the outcomes given here: active, inactive

COC1(OC)C[C@H](C)[C@@]23O[C@]24c2cc(O)c5c(c2N[C@H]3C#C/C=C\C#C[C@]14O)C(=O)c1ccccc1C5=O	active
Cc1cc(Nc2nc(N3CCOCC3)nc3ccccc23)n[nH]1	inactive

Consider the additional molecule presented here.
Call for entry `CCOC(=O)c1ccc2[nH]c(Cc3[nH]c4ccc(C(=O)OCC)cc4c3C)c(C)c2c1` :
inactive

* * *

System: SK-MEL-5 melanoma
METHOD SUMMARY: NCI tumour cell line growth inhibition, 48 h
READOUT NAME: TGI

# example entries with known answers
Cc1ccc(S(=O)(=O)Oc2coc(CO)cc2=O)cc1	33.7 µM
CC1C(c2ccccc2)=CCON1c1ccccc1 (stereo unspecified)	> 100 µM
CC(=O)CCC(=O)CC(O)(C(F)(F)F)C(F)(F)F	33.2 µM
O=c1c2c([nH]c3nccn13)CCCC2	> 10 µM
c1cc2[se][se]c3c4cccc5[se][se]c(c(c1)c23)c54	> 100 µM

Consider the record given below.
Data request, read-out TGI, for `[N-]=[N+]=Nc1cc(=O)n(-c2ccccc2)c(=O)n1-c1ccccc1`
> 100 µM

* * *

System: MALME-3M melanoma
METHOD SUMMARY: NCI tumour cell line growth inhibition, 48 h
*1 amine or outer side, *2 acyl side, *3 side chain or, on linkers, in order; H or OH if unused. Where a SMILES comes first, the peptide text is derived from it. CO = O=C([*:1])[*:2]
READOUT NAME: TGI

# example entries with known answers
O=c1c2cc([N+](=O)[O-])cnc2sn1-c1ccc(Oc2ccccc2)cc1	74.9 µM
CC(C)C(NC(=O)C(CCCN=C(N)N)NC(=O)NC(Cc1ccccc1)C(=O)O)C(=O)NC(C=O)CCCN=C(N)N (stereo not drawn) ({Phe-CO}-Arg-Val-Arg-aldehyde; configuration not given here)	> 5 µM
O=C(CCc1ccc(O)c(O)c1)c1ccc(O)c(O)c1O	> 100 µM
Cc1ncc([N+](=O)[O-])n1CC(O)Cn1cnc([N+](=O)[O-])n1 (stereo not drawn)	> 100 µM
COc1cc(-c2ccc(-[n+]3nc(-c4ccc([N+](=O)[O-])cc4)nn3-c3ccc([N+](=O)[O-])cc3)c(OC)c2)ccc1-[n+]1nc(-c2ccc([N+](=O)[O-])cc2)nn1-c1ccc([N+](=O)[O-])cc1	4.47 µM
CCC[CH2][Sn]([CH2]CCC)([O]C(=O)c1cccc(F)c1F)[O][Sn]([CH2]CCC)([CH2]CCC)[O]C(=O)c1cccc(F)c1F	0.284 µM
Cc1ccc(NC(=O)/C(=N/NC(=O)CC#N)C2C(=O)N(c3ccccc3)N=C2N)cc1C (stereo not drawn)	> 100 µM

Consider the record given below.
Data request, read-out TGI, for `COc1ccc(-c2cc(=O)c3c(O)c(OC)c(O)cc3o2)cc1O`
> 25.8 µM

* * *

Test system: NCI-H226 lung
METHOD SUMMARY: NCI tumour cell line growth inhibition, 48 h
READOUT NAME: TGI

CC1=C(N(C)C)C(=O)c2nc3n(c2C1=O)CCC3OC(N)=O (centres undefined)	33.7 µM
C=C(CO)[C@H]1CC/C(C)=C/CC/C(C)=C/C/C=C(\C)[C@H](O)C1	90.9 µM
COc1cc(-c2ccc(-[n+]3nc(-c4ccc([N+](=O)[O-])cc4)nn3-c3ccc([N+](=O)[O-])cc3)c(OC)c2)ccc1-[n+]1nc(-c2ccc([N+](=O)[O-])cc2)nn1-c1ccc([N+](=O)[O-])cc1	45.7 µM
COc1ccc2cc(CNCCCN3CCN(CCCNCc4ccc5cc(OC)ccc5c4)CC3)ccc2c1	3.69 µM
CC[N+](CC)(CC)Cc1cn(S(=O)(=O)c2ccccc2)c2ccccc12	> 100 µM
C[C@]12CC[C@H]3[C@@H](CC=C4C[C@@H](O)CC[C@@]43C)[C@@H]1C/C(=C\c1cccc(OCCCn3ccnc3)c1)[C@@H]2O	43.4 µM
[N-]=[N+]=Nc1cc(=O)n(-c2ccccc2)c(=O)n1-c1ccccc1	> 100 µM
CC1=C(C(=O)OC23CC4CC(CC(C4)C2)C3)C(c2ccccc2OC(F)F)C(C(=O)OC23CC4CC(CC(C4)C2)C3)=C(C)N1 (centres undefined)	> 100 µM
O[C@H]1[C@H]2[C@H](O)CCCN2C[C@H]1O	> 100 µM
Cc1ncc([N+](=O)[O-])n1CC(O)Cn1cnc([N+](=O)[O-])n1 (centres undefined)	> 100 µM

For every listed record, write down its TGI.
1. O=C(Nc1nc(-c2ccc(Cl)cc2)cs1)c1ccc(O)c(O)c1
2. c1ccc2c(NCCCCCCCCNc3cccc4ccccc34)cccc2c1
3. C[N+]1(C)C2CCC1CC(OC(=O)C(CO)c1ccccc1)C2 (centres undefined)
4. N#C/C(=C\c1ccc(Br)cc1)n1nnc2cc(F)c(F)cc21

1. 19.7 µM
2. > 100 µM
3. > 100 µM
4. 4.99 µM

For every listed record, write down its TGI.
1. O=C1NC(=O)[C@H]2C3C=CC([C@@H]12)[C@@H]1C(=O)NC(=O)[C@H]31
2. Cc1nc2c(n1CCCl)C(=O)c1ccccc1C2=O
3. O=C(n1[nH]c(=O)n(-c2ccc([N+](=O)[O-])cc2)c1=O)C(Cl)(Cl)Cl
4. Cc1c(N(C(=O)c2cc(-c3cc(Cl)ccc3C(=O)N3Cc4ccccc4C[C@H]3CN3CCOCC3)n(C)c2C)c2ccc(O)cc2)cc(C#N)n1C
5. O=S(=O)(NCCNc1cc(-c2cn(-c3ccccc3)nc2-c2cccc(O)c2)ccn1)c1ccc(F)cc1
6. O=C1CS(=O)(=O)C(c2cccc(Oc3ccccc3)c2)N1c1cccc(Cl)c1Cl (centres undefined)

1. > 100 µM
2. 50.1 µM
3. > 75 µM
4. 44.4 µM
5. 13.7 µM
6. > 100 µM

For every listed record, write down its TGI.
1. CC(C)CC(NC(=O)OCc1ccccc1)C(=O)NCCCCC(N)C(=O)NC(CCCCNC(=O)C(CC(C)C)NC(=O)OCc1ccccc1)C(=O)NC(CCCCNC(=O)C(CC(C)C)NC(=O)OCc1ccccc1)C(=O)NC(CCCCNC(=O)C(CC(C)C)NC(=O)OCc1ccccc1)C(=O)NC(CCCCNC(=O)C(CC(C)C)NC(=O)OCc1ccccc1)C(=O)NC(CCCCNC(=O)C(CC(C)C)NC(=O)OCc1ccccc1)C(=O)O (centres undefined)
2. CCOC(=O)C(=O)Nc1ccc([N+](=O)[O-])cc1C#N
3. CN(C)Cc1cc(C(=O)/C=C/c2c(Cl)cccc2Cl)cc(CN(C)C)c1O

> 100 µM
> 100 µM
32.4 µM

For every listed record, write down its TGI.
1. CCC[CH2][Sn]([CH2]CCC)([O]C(=O)c1cccc(F)c1F)[O][Sn]([CH2]CCC)([CH2]CCC)[O]C(=O)c1cccc(F)c1F
2. N#Cc1c(SCc2ccccc2)nc2[nH]c(=S)[nH]c(=S)c2c1-c1ccco1

1: 0.851 µM; 2: 52.8 µM
